# System: human ACE2 (human, UniProt Q9BYF1)
# Sequence (Q9BYF1 18-740): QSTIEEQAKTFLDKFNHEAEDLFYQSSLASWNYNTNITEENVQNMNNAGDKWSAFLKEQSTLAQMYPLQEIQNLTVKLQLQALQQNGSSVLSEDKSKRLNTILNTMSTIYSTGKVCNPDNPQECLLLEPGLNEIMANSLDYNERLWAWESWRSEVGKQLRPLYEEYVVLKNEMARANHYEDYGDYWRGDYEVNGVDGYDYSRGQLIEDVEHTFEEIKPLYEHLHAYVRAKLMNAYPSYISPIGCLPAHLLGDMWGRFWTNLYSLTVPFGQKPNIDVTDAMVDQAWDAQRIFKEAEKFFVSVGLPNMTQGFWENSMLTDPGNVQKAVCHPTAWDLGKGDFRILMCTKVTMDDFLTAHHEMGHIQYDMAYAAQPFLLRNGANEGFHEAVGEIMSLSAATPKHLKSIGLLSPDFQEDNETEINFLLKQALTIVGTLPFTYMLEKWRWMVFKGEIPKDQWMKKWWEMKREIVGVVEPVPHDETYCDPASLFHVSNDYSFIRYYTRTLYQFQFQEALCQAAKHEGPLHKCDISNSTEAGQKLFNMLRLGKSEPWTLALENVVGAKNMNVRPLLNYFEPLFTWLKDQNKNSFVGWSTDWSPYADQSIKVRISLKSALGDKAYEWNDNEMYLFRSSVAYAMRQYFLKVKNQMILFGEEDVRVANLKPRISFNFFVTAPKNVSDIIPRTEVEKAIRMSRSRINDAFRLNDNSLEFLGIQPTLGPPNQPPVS
# Test Method Notes: SPR, 37C
Ends that are not written are not given here.
Readout Label: pKd
As a rule, pKd stands for the negative log10 of the concentration, concentration in M.

Reported pKd ( FPIPLPYYWLYRALIKRIQALIPKGGRLLPQLVYRLVLRYS (also: biotinylated (site not given here)) [B-YL (biotinylated)] ) = 5.36
